Test system: RPMI-8226 leukemia
protocol notes: NCI-60 one-dose screen, 48 h (100 = growth as untreated, 0 = no growth, -100 = all killed)
condition details: 10 µM unless noted
Experimental: Growth inhibition of the RPMI-8226 human tumor cell line is measured as a screen for anti-cancer activity. Cells are grown in 96 well plates and exposed to the test compound for 48 hours. Compounds are tested at a single concentration, which is 10^-5 M for most compounds. The reported endpoint is percent growth (GI% or GIPRCNT), where numbers from 0 - 100% represent growth inhibition, and numbers from -100% - 0 represent cell death. For example, a value of 40 represents 60% growth inhibition. […]
This is part of a sample that, as a whole, favours compounds with a hit. Of some 83,000 tested, about 20% had one in any assay.
// -1 strictly below 50% in growth; 1 otherwise

Observe how each entry below is paired with its result.
compound | discrete label
CC(C)CCC1(CCCl)C(=O)NC(=O)NC1=O | 1
O=[N+]([O-])c1cc(I)cc([N+](=O)[O-])c1 | 1
O=C1N[C@@H]2[C@@H](O)[C@@H](O)[C@H](O)C[C@H]2c2cc3c(c(O)c21)OCO3 | -1

IN: Exam item: decide whether the reported growth for "C/C(=C\c1ccn(-c2ccc(N)cc2C(F)(F)F)n1)[C@@H]1C[C@@H]2O[C@]2(C)CCC[C@H](C)[C@H](O)[C@@H](C)C(=O)C(C)(C)[C@@H](O)CC(=O)O1" is at least 50%.
OUT: -1

IN: Try this compound too: C1CCC([PH+](C2CCCCC2)C2CCCCC2[PH+](C2CCCCC2)C2CCCCC2)CC1.[Au].[CH-]1CCCCC1CC1CCCC[N-]1 (stereo not drawn)
OUT: -1

IN: Try this compound too: CC(CC1CCCCC1)NCc1ccccc1 (stereo not drawn)
OUT: 1

IN: Try this compound too: "COc1ccc(/C=C\c2cc(OC)c(OC)c(OC)c2)cc1OCC(=O)Nc1nc2ccc(F)cc2s1"
OUT: -1

###

Tested on: M14 melanoma
protocol notes: NCI-60 one-dose screen, 48 h
condition details: 10 µM unless noted
Compounds without any hit were thinned out: in the full panel of roughly 83,000, 20% have a hit. The source made the active and inactive calls. The calls were made as follows: active = growth percent below 10; inactive = the rest.
Field 'call' accepts yes for active, no for inactive

compound | tested system | discrete label
COC(=O)[C@H](Cc1ccccc1)NNC(=O)c1csc([C@@H](C[C@H](C(C)C)N(C)C(=O)[C@@H](NC(=O)[C@H]2CCCCN2C)C2CC2)OC(C)=O)n1 | M14 melanoma | yes

IN: How was "C=COC(=O)CCN1CC1" classified in this test?
OUT: no

IN: Try this compound too: "CC(=O)[O][Hg][O]C(C)=O"
OUT: no

IN: Try this compound too: "C[C@]12CC[C@@H]3c4ccc(Oc5nc(N6CC6)nc(N6CC6)n5)cc4CC[C@H]3[C@@H]1CCC2=O"
OUT: no

IN: Try this compound too: "CCCCCCCC[N+](C)(CCCCCCCC)CCCCCCCC"
OUT: yes

IN: Try this compound too: "Cc1cnc(/C=C/C(=O)O)cc1-c1cc2c(cc1C)C(C)(C)CCC2(C)C"
OUT: no

IN: Try this compound too: "Cn1cc(-c2csc(-c3cn(CCN4CCOCC4)c4ccc(F)cc34)n2)c2cccnc21"
OUT: yes

###

Test system: BT-549 breast
protocol notes: NCI-60 one-dose screen, 48 h (100 = growth as untreated, 0 = no growth, -100 = all killed)
condition details: 10 µM unless noted
About 83,000 compounds went through this panel and 20% of them were active in at least one assay; those are over-represented in the sample as a whole. Activity calls are given as the source filed them. Rule for the calls: active = growth percent below 10; inactive = the rest.
Reported growth is given for each of the following compounds.

IN: Fill in the blank: the reported growth of O=C(CC1(O)C(=O)N(Cc2ccccc2)c2ccc(F)cc21)c1ccc(C(=O)NCC2CCC3(CC2)OOC2(CCCCC2)OO3)cc1 (centres undefined) is ____.
OUT: -19.7% (active)

IN: Try this compound too: "COc1cc([C@@H]2c3cc4c(cc3[C@H](OC(C)=O)[C@H]3COC(=O)[C@H]23)OCO4)cc(OC)c1OC"
OUT: 31.5% (inactive)

###

Tested on: CAKI-1 renal
protocol notes: NCI-60 one-dose screen, 48 h
condition details: 10 µM unless noted
This is part of a sample that, as a whole, favours compounds with a hit. Of some 83,000 tested, about 20% had one in any assay. Calls of active or inactive are those of the source. The calls were made as follows: active = growth percent below 10; inactive = the rest.
Field 'call' accepts yes for active, no for inactive

compound | discrete label
CC[C@]12C=CCN3CC[C@@]4(c5ccc(OC)cc5N(C)[C@H]4[C@@](O)(C(=O)OC)[C@@H]1OC(=O)CCCC[P+](c1ccccc1)(c1ccccc1)c1ccccc1)[C@@H]32 | no
CC(=O)OC1CCC2(C)C(CCC3C2CC(=O)C2(C)C3CC(Sc3ccc(N(CCCl)CCCl)cc3)C2C(C)=O)C1 (centres undefined) | no
O=C([O][Hg][CH2]C1OCCOC1[CH2][Hg][O]C(=O)c1ccccc1)c1ccccc1 (centres undefined) | yes
C[n+]1c(/C=C/c2ccc(N(CCCl)CCCl)cc2)sc2ccccc21 | no
O=C(O)CNC(=O)C(Cl)(Cl)Cl | no
O=C(c1ccccc1O)c1[nH]c(Cl)c(Cl)c1-n1c(C(=O)c2ccccc2O)cc(Cl)c1Cl | yes
CC(CC1CCCCC1)NCc1ccccc1 (centres undefined) | no
O=P1(NCCCl)OCCCN1CCCl (centres undefined) | no

Here is another compound to look at.
IN: How was "Fc1c[c-]c(-c2ccccn2)c(F)c1.[CH3-].[Pt+2].c1ccc([PH+](c2ccccc2)c2ccccn2)cc1" classified in this test?
OUT: yes

###

System: HCT-116 colon
protocol notes: NCI-60 one-dose screen, 48 h (100 = growth as untreated, 0 = no growth, -100 = all killed)
condition details: 10 µM unless noted
The panel holds about 83,000 compounds, 20% with a hit somewhere; the sample as a whole holds those more often.
recorded metric: growth (%)
Only the number, expressed in %, is required.

For orientation, consider the following solved cases.
molecule | scale unit | growth
C=CC[n+]1ccc(-c2cc[n+](CC=C)cc2)cc1 | % | 98.5
COc1cccc(C=NC(Cc2cnc[nH]2)C(=O)O)c1O (stereo not given) | % | 97.8
CC(=O)OC[C@]1(C)C=C2C(=O)[C@](C)(O)C3(CC3)C(C)=C2[C@H]1O | % | 0.12

IN: Fill in the blank: the reported growth of "N#CC1(c2ccccc2)CCN(Cc2ccccc2)CC1" is ____.
OUT: 104

IN: Try this molecule too: "CC(=O)OC[C@]1(C)C=C2C(=O)[C@](C)(O)C3(CC3)C(C)=C2[C@H]1OC(=O)N(C)CCN(C)C(=O)OC(C)(C)C"
OUT: 3.86

###

Test system: SNB-75 CNS
protocol notes: NCI-60 one-dose screen, 48 h (100 = growth as untreated, 0 = no growth, -100 = all killed)
condition details: 10 µM unless noted
Experimental: Growth inhibition of the SNB-75 human tumor cell line is measured as a screen for anti-cancer activity. Cells are grown in 96 well plates and exposed to the test compound for 48 hours. Compounds are tested at a single concentration, which is 10^-5 M for most compounds. The reported endpoint is percent growth (GI% or GIPRCNT), where numbers from 0 - 100% represent growth inhibition, and numbers from -100% - 0 represent cell death. For example, a value of 40 represents 60% growth inhibition. […]
Compounds without any hit were thinned out: in the full panel of roughly 83,000, 20% have a hit.
// not fulfilled strictly below 40% in growth; fulfilled otherwise

compound | tested system | discrete label
ClCCN(CCCl)c1nc(Cl)c(C2CC(c3ccccc3)=NN2c2cc(Cl)cc(Cl)c2)s1 (centres undefined) | SNB-75 CNS | fulfilled
C[C@]12CCc3sc(NCCc4ccccc4)nc3C1=CC[C@@H]1[C@@H]2CC[C@]2(C)C(=O)CC[C@@H]12 | SNB-75 CNS | fulfilled
C#Cc1ccc2c(c1)C(c1ccccc1)=NCC(=O)N2C | SNB-75 CNS | fulfilled
CCCCN1CCCC[C@@H]1C(=O)N[C@H](C(=O)N(C)[C@H](C[C@@H](OC(C)=O)c1nc(C(=O)NC2CCC(C(=O)OC)CC2)cs1)C(C)C)C(C)C (some centres undefined) | SNB-75 CNS | not fulfilled
COc1ccc(/C=C\c2cc(OC)c(OC)c(OC)c2)c(NS(=O)(=O)c2ccc(Cl)cc2)c1O | SNB-75 CNS | not fulfilled

IN: Exam item: decide whether the reported growth for "CCN(CC)CCOC(=O)C(OC(C)C)(c1ccccc1)c1ccccc1" is at least 40%.
OUT: fulfilled

IN: Try this compound too: CC1CCCC(C[N+](C)(C)C)C1=O (centres undefined)
OUT: fulfilled

IN: Try this compound too: O=C(O)C(O)C(O)C1[O][Sb]([c]2ccc([N+](=O)[O-])cc2)[O]C1CO (centres undefined)
OUT: fulfilled

IN: Try this compound too: "COc1ccc(/C=C\c2cc(OC)c(OC)c(OC)c2)c(NS(=O)(=O)c2ccc(C)cc2)c1O"
OUT: fulfilled
